# Assayed System: UniProtKB P32247
# Experiment Description: Agonist activity at human BRS3 expressed in HEK293 cells expressing aequorin measured for 30 secs by bioluminescence assay
# Format: functional, cell-based

Compound | Assayed System | Lt Gt Eq | EC50 (nM)
CC(C)(C)c1ccc(S(=O)(=O)N2Cc3ccc(C(F)(F)F)nc3Nc3ccc(C(C)(C)O)c(F)c32)cc1 | UniProtKB P32247 | = | 77
CC(C)(C)c1ccc(S(=O)(=O)N2Cc3ccc(C(F)(F)F)nc3Nc3ccc4ncccc4c32)cc1 | UniProtKB P32247 | = | 108
Cc1ccc2c(c1C)N(S(=O)(=O)c1ccc(C(C)(C)C)cc1)Cc1cc(Cl)cnc1N2 | UniProtKB P32247 | > | 10000
Cc1ccc2c(c1C)N(S(=O)(=O)c1ccc(C(C)C)cc1)Cc1ccc(C(F)(F)F)nc1N2 | UniProtKB P32247 | = | 49
CC(C)(C)c1ccc(S(=O)(=O)N2Cc3ccc(C(F)(F)F)nc3Nc3cccc(O)c32)cc1 | UniProtKB P32247 | = | 88
CC(C)(C)c1ccc(S(=O)(=O)N2Cc3ccc(C(F)(F)F)nc3Nc3ccccc32)cc1 | UniProtKB P32247 | = | 110
CC(C)(C)c1ccc(S(=O)(=O)N2Cc3ccc(C(F)(F)F)nc3Nc3cccc(Cl)c32)cc1 | UniProtKB P32247 | = | 63
Cc1ccc2c(c1C)N(S(=O)(=O)c1ccc(C(C)(C)C)cc1)Cc1cccnc1N2 | UniProtKB P32247 | = | 325
Cc1ccc2c(c1C)N(S(=O)(=O)c1ccc(C(C)(C)C)cc1)Cc1cc(F)c(Cl)nc1N2 | UniProtKB P32247 | = | 277
Cc1cccc2c1N(S(=O)(=O)c1ccc(C(C)(C)C)cc1)Cc1ccc(C(F)(F)F)nc1N2 | UniProtKB P32247 | = | 50
Cc1ccc2c(c1C)Nc1nc(C(F)(F)F)ccc1CN2S(=O)(=O)c1ccc(C(C)(C)C)cc1 | UniProtKB P32247 | > | 10000
Cc1ccc2c(c1C)N(S(=O)(=O)c1ccc(OC(F)(F)F)cc1)Cc1ccc(C(F)(F)F)nc1N2 | UniProtKB P32247 | = | 43
Cc1ccc2c(c1C)N(S(=O)(=O)c1csc(C(F)(F)F)c1)Cc1ccc(C(F)(F)F)nc1N2 | UniProtKB P32247 | = | 123
Cc1ccc2c(c1C)N(S(=O)(=O)c1ccc(C(F)(F)F)cc1)Cc1ccc(C(F)(F)F)nc1N2 | UniProtKB P32247 | = | 154
Cc1ccc2c(c1C)N(S(=O)(=O)c1ccc(C(C)(C)C)cc1)Cc1ccc(C#N)nc1N2 | UniProtKB P32247 | = | 50
Cc1ccc2c(c1C)N(S(=O)(=O)c1ccc(C(C)(C)F)cc1)Cc1ccc(C(F)(F)F)nc1N2 | UniProtKB P32247 | = | 69
Cc1ccc2c(c1)N(S(=O)(=O)c1ccc(C(C)(C)C)cc1)Cc1ccc(C(F)(F)F)nc1N2 | UniProtKB P32247 | = | 199
Cc1ccc2c(n1)Nc1ccc(C)c(C)c1N(S(=O)(=O)c1ccc(C(C)(C)C)cc1)C2 | UniProtKB P32247 | = | 131

---

# Test system: Rattus norvegicus
# Experiment Description: Dose normalized AUC in Sprague-Dawley rat at 4 mg/kg, po
# Format: ADME, organism-based
# Design: dose 4 mg/kg, route oral
# Condition Set: in vivo
Endpoint Label: AUC/dose (µM·kg·h/mg)

Compound | Endpoint Label | Result Units | Endpoint Result
CC(C)(C)c1ccc(S(=O)(=O)N2Cc3ccc(C(F)(F)F)nc3Nc3ccc(C(C)(C)O)c(F)c32)cc1 | AUC/dose | µM·kg·h/mg | 0.19
Cc1ccc2c(c1C)N(S(=O)(=O)c1ccc(C(C)(C)C)cc1)Cc1ccc(C(F)(F)F)nc1N2 | AUC/dose | µM·kg·h/mg | 0.2
Cc1ccc2c(c1)N(S(=O)(=O)c1ccc(C(C)(C)C)cc1)Cc1ccc(C(F)(F)F)nc1N2 | AUC/dose | µM·kg·h/mg | 0.31
Cc1ccc2c(c1C)N(S(=O)(=O)c1ccc(C(C)(C)C)cc1)Cc1cccnc1N2 | AUC/dose | µM·kg·h/mg | 0.007
Cc1cccc2c1N(S(=O)(=O)c1ccc(C(C)(C)C)cc1)Cc1ccc(C(F)(F)F)nc1N2 | AUC/dose | µM·kg·h/mg | 0.13
CC(C)(C)c1ccc(S(=O)(=O)N2Cc3ccc(C(F)(F)F)nc3Nc3cccc(Cl)c32)cc1 | AUC/dose | µM·kg·h/mg | 0.26

---

Quick reference for IC50 among some compounds
# Assayed System: Bombesin receptor subtype-3 (Homo sapiens, UniProt P32247)
# Sequence (P32247 whole entry): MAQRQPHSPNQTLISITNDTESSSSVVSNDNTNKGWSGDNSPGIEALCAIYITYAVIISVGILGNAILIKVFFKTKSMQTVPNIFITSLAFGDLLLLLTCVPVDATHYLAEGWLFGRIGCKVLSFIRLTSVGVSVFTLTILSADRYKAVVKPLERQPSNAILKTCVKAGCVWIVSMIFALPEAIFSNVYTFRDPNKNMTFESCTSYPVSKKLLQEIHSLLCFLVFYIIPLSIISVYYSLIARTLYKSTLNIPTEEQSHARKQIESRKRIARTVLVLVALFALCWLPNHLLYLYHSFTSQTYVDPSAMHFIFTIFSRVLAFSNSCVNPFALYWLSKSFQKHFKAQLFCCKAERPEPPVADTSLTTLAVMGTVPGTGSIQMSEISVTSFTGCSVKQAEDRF
# Experiment Description: Displacement of [125I]-[D-Tyr6,beta-Ala11,Phe13,Nle14]-Bombesin(6-14) from human BRS3 expressed in CHO cells expressing NFAT after 2 hrs by liquid scintillation counting

Compound | Assayed System | Result Units | IC50
Cc1ccc2c(c1C)N(S(=O)(=O)c1ccc(C(F)(F)F)s1)Cc1ccc(C(F)(F)F)nc1N2 | Bombesin receptor subtype-3 (Homo sapiens, UniProt P32247) | nM | 10
Cc1ccc2c(c1C)N(S(=O)(=O)c1ccc(C(C)(C)C)cc1)Cc1ccc(Cl)nc1N2 | Bombesin receptor subtype-3 (Homo sapiens, UniProt P32247) | nM | 1.2
CC(C)(C)c1ccc(S(=O)(=O)N2Cc3ccc(C(F)(F)F)nc3Nc3cccc(O)c32)cc1 | Bombesin receptor subtype-3 (Homo sapiens, UniProt P32247) | nM | 2.2
